Sourced from paper PMC7734625

experiment: biodistribution in A431-CCK2R/A431-mock xenografted BALB/c nude mice; type: in vivo; conditions: female, athymic BALB/c nude, mouse, tumor/blood, iv, 20 pmol, total radioactivity, 20 pmol, 12 h p.i.; read-out: tumor-to-blood ratio
Non-standard residues stand in square brackets, D forms with d. Residues, ends and D or L forms follow the SMILES beside them. *: point of attachment. DOTA = O=C(O)CN1CCN(CC(=O)O)CCN(CC(=O)*)CCN(CC(=O)O)CC1; 1Nal = N[C@@H](Cc1cccc2ccccc12)C(=O)O; NMeNle = CCCC[C@H](NC)C(=O)O
Recorded tissue to tissue ratio at 12 h by entry
// return just the number, without any unit appended

Challenge: Determine its reported tissue to tissue ratio at 12 h: CCCC[C@@H](C(=O)N[C@@H](CC(=O)O)C(=O)N[C@@H](Cc1cccc2ccccc12)C(N)=O)N(C)C(=O)[C@H](Cc1c[nH]c2ccccc12)NC(=O)CNC(=O)[C@H](Cc1ccc(O)cc1)NC(=O)[C@@H]1CCCN1C(=O)[C@@H](CCC(=O)O)NC(=O)CN1CCN(CC(=O)O)CCN(CC(=O)O)CCN(CC(=O)O)CC1 [[^177Lu]Lu-1, metal not drawn] ({DOTA}-[dE]PYGW[NMeNle]D[1Nal]-NH2)
Response given: 2440

Challenge: Identify the reported tissue to tissue ratio at 12 h for the following entry. CCCC[C@@H](C(=O)N[C@@H](CC(=O)O)C(=O)N[C@@H](Cc1cccc2ccccc12)C(N)=O)N(C)C(=O)[C@H](Cc1c[nH]c2ccccc12)NC(=O)CNC(=O)[C@@H]1CCCN1C(=O)[C@H](Cc1ccc(O)cc1)NC(=O)[C@@H](CCC(=O)O)NC(=O)CN1CCN(CC(=O)O)CCN(CC(=O)O)CCN(CC(=O)O)CC1 [[^177Lu]Lu-2, metal not drawn] ({DOTA}-[dE]YPGW[NMeNle]D[1Nal]-NH2)
Response given: 2000

====

assay: biodistribution in A431-CCK2R/A431-mock xenografted BALB/c nude mice; format: in vivo; details: female, athymic BALB/c nude, mouse, stomach, iv, 20 pmol, total radioactivity, 20 pmol, 4 h p.i.; read-out: uptake in stomach
Non-standard residues stand in square brackets, D forms with d. Residues, ends and D or L forms follow the SMILES beside them. *: point of attachment. DOTA = O=C(O)CN1CCN(CC(=O)O)CCN(CC(=O)*)CCN(CC(=O)O)CC1; 1Nal = N[C@@H](Cc1cccc2ccccc12)C(=O)O; NMeNle = CCCC[C@H](NC)C(=O)O
# maps each entry to its tissue uptake at 4 h
Provide only the numeric value, understood in %ID/g.

Some solved entries appear below for comparison.
| COMPOUND | tissue uptake at 4 h / %ID/g |
| --- | --- |
| CCCC[C@@H](C(=O)N[C@@H](CC(=O)O)C(=O)N[C@@H](Cc1cccc2ccccc12)C(N)=O)N(C)C(=O)[C@H](Cc1c[nH]c2ccccc12)NC(=O)CNC(=O)[C@H](Cc1ccc(O)cc1)NC(=O)[C@@H]1CCCN1C(=O)[C@@H](CCC(=O)O)NC(=O)CN1CCN(CC(=O)O)CCN(CC(=O)O)CCN(CC(=O)O)CC1 [[^177Lu]Lu-1, metal not drawn] ({DOTA}-[dE]PYGW[NMeNle]D[1Nal]-NH2) | 7.37 |
| CCCC[C@@H](C(=O)N[C@@H](CC(=O)O)C(=O)N[C@@H](Cc1cccc2ccccc12)C(N)=O)N(C)C(=O)[C@H](Cc1c[nH]c2ccccc12)NC(=O)[C@@H]1CCCN1C(=O)[C@H](Cc1ccc(O)cc1)NC(=O)[C@H](C)NC(=O)[C@@H](CCC(=O)O)NC(=O)CN1CCN(CC(=O)O)CCN(CC(=O)O)CCN(CC(=O)O)CC1 [[^177Lu]Lu-3, metal not drawn] ({DOTA}-[dE]AYPW[NMeNle]D[1Nal]-NH2) | 4.73 |

# evaluate next
Challenge: Look up tissue uptake at 4 h of CCCC[C@@H](C(=O)N[C@@H](CC(=O)O)C(=O)N[C@@H](Cc1cccc2ccccc12)C(N)=O)N(C)C(=O)[C@H](Cc1c[nH]c2ccccc12)NC(=O)CNC(=O)[C@@H]1CCCN1C(=O)[C@H](Cc1ccc(O)cc1)NC(=O)[C@@H](CCC(=O)O)NC(=O)CN1CCN(CC(=O)O)CCN(CC(=O)O)CCN(CC(=O)O)CC1 [[^177Lu]Lu-2, metal not drawn] ({DOTA}-[dE]YPGW[NMeNle]D[1Nal]-NH2) and report it.
Response given: 4.68

====

assay: biodistribution in A431-CCK2R/A431-mock xenografted BALB/c nude mice; assay type: in vivo; conditions: female, athymic BALB/c nude, mouse, A431-mock xenograft tumor, iv, 150 pmol, total radioactivity, 150 pmol, 4 h p.i.; read-out: uptake in A431-mock xenografts
Non-standard residues stand in square brackets, D forms with d. Residues, ends and D or L forms follow the SMILES beside them. *: point of attachment. DOTA = O=C(O)CN1CCN(CC(=O)O)CCN(CC(=O)*)CCN(CC(=O)O)CC1; 1Nal = N[C@@H](Cc1cccc2ccccc12)C(=O)O; NMeNle = CCCC[C@H](NC)C(=O)O
ATTRIBUTE_MEASURED: tissue uptake at 4 h (%ID/g)
Express the result in %ID/g but write the number alone.

Challenge: Quick one: give measured tissue uptake at 4 h for CCCC[C@@H](C(=O)N[C@@H](CC(=O)O)C(=O)N[C@@H](Cc1cccc2ccccc12)C(N)=O)N(C)C(=O)[C@H](Cc1c[nH]c2ccccc12)NC(=O)CNC(=O)[C@@H]1CCCN1C(=O)[C@H](Cc1ccc(O)cc1)NC(=O)[C@@H](CCC(=O)O)NC(=O)CN1CCN(CC(=O)O)CCN(CC(=O)O)CCN(CC(=O)O)CC1 [[^177Lu]Lu-2, metal not drawn] ({DOTA}-[dE]YPGW[NMeNle]D[1Nal]-NH2)
Response given: 0.33

====

Listed here are molecules together with their documented tissue uptake at 12 h.
experiment: biodistribution in A431-CCK2R/A431-mock xenografted BALB/c nude mice; type: in vivo; conditions: female, athymic BALB/c nude, mouse, kidney, iv, 20 pmol, total radioactivity, 20 pmol, 12 h p.i.; read-out: uptake in kidney
Non-standard residues stand in square brackets, D forms with d. Residues, ends and D or L forms follow the SMILES beside them. *: point of attachment. DOTA = O=C(O)CN1CCN(CC(=O)O)CCN(CC(=O)*)CCN(CC(=O)O)CC1; 1Nal = N[C@@H](Cc1cccc2ccccc12)C(=O)O; NMeNle = CCCC[C@H](NC)C(=O)O
Give the value, in units of %ID/g, as a plain number.

| MOLECULE | tissue uptake at 12 h [%ID/g] |
| --- | --- |
| CCCC[C@@H](C(=O)N[C@@H](CC(=O)O)C(=O)N[C@@H](Cc1cccc2ccccc12)C(N)=O)N(C)C(=O)[C@H](Cc1c[nH]c2ccccc12)NC(=O)CNC(=O)[C@H](Cc1ccc(O)cc1)NC(=O)[C@@H]1CCCN1C(=O)[C@@H](CCC(=O)O)NC(=O)CN1CCN(CC(=O)O)CCN(CC(=O)O)CCN(CC(=O)O)CC1 [[^177Lu]Lu-1, metal not drawn] ({DOTA}-[dE]PYGW[NMeNle]D[1Nal]-NH2) | 3.12 |

Now for a further molecule.
Challenge: Note tissue uptake at 12 h for the molecule shown: CCCC[C@@H](C(=O)N[C@@H](CC(=O)O)C(=O)N[C@@H](Cc1cccc2ccccc12)C(N)=O)N(C)C(=O)[C@H](Cc1c[nH]c2ccccc12)NC(=O)CNC(=O)[C@@H]1CCCN1C(=O)[C@H](Cc1ccc(O)cc1)NC(=O)[C@@H](CCC(=O)O)NC(=O)CN1CCN(CC(=O)O)CCN(CC(=O)O)CCN(CC(=O)O)CC1 [[^177Lu]Lu-2, metal not drawn] ({DOTA}-[dE]YPGW[NMeNle]D[1Nal]-NH2)
Response given: 3.37

====

assay: biodistribution in A431-CCK2R/A431-mock xenografted BALB/c nude mice; type: in vivo; settings: female, athymic BALB/c nude, mouse, tumor/liver, iv, 20 pmol, total radioactivity, 20 pmol, 12 h p.i.; read-out: tumor-to-liver ratio
Non-standard residues stand in square brackets, D forms with d. Residues, ends and D or L forms follow the SMILES beside them. *: point of attachment. DOTA = O=C(O)CN1CCN(CC(=O)O)CCN(CC(=O)*)CCN(CC(=O)O)CC1; 1Nal = N[C@@H](Cc1cccc2ccccc12)C(=O)O; NMeNle = CCCC[C@H](NC)C(=O)O
Below is a list of entries, each paired with its recorded tissue to tissue ratio at 12 h value.
Provide a numeric answer; units are not to be included.

| COMPOUND | tissue to tissue ratio at 12 h |
| --- | --- |
| CCCC[C@@H](C(=O)N[C@@H](CC(=O)O)C(=O)N[C@@H](Cc1cccc2ccccc12)C(N)=O)N(C)C(=O)[C@H](Cc1c[nH]c2ccccc12)NC(=O)CNC(=O)[C@@H]1CCCN1C(=O)[C@H](Cc1ccc(O)cc1)NC(=O)[C@@H](CCC(=O)O)NC(=O)CN1CCN(CC(=O)O)CCN(CC(=O)O)CCN(CC(=O)O)CC1 [[^177Lu]Lu-2, metal not drawn] ({DOTA}-[dE]YPGW[NMeNle]D[1Nal]-NH2) | 131 |

Proceeding to the next compound to report its tissue to tissue ratio at 12 h.
Challenge: Kindly indicate its recorded tissue to tissue ratio at 12 h. Item: CCCC[C@@H](C(=O)N[C@@H](CC(=O)O)C(=O)N[C@@H](Cc1cccc2ccccc12)C(N)=O)N(C)C(=O)[C@H](Cc1c[nH]c2ccccc12)NC(=O)CNC(=O)[C@H](Cc1ccc(O)cc1)NC(=O)[C@@H]1CCCN1C(=O)[C@@H](CCC(=O)O)NC(=O)CN1CCN(CC(=O)O)CCN(CC(=O)O)CCN(CC(=O)O)CC1 [[^177Lu]Lu-1, metal not drawn] ({DOTA}-[dE]PYGW[NMeNle]D[1Nal]-NH2)
Response given: 76.8
